assay: Cytotoxicity against sensitive mouse L5178 cells after 24 hrs by MTT assay; assay type: cell-based; conditions: l5178, 24 h

{"columns": ["structure smiles string", "units", "censoring sign", "Activity"],
 "data": [
  ["COC(=O)CN1C(=O)N(CCCN2CCN(c3ccccc3)CC2)C(c2ccccc2)(c2ccccc2)C1=O", "µM", "=", 40],
  ["COC(=O)CN1C(=O)N(CCCCN2CCN(C(=O)c3ccco3)CC2)C2(C1=O)c1ccccc1-c1ccccc12", "µM", "=", 59],
  ["O=C(O)CN1C(=O)N(CCCCN2CCN(C(=O)c3ccco3)CC2)C2(C1=O)c1ccccc1-c1ccccc12", "µM", ">", 100],
  ["COC(=O)CN1C(=O)N(CCCCN2CCN(c3ccccc3F)CC2)C(c2ccccc2)(c2ccccc2)C1=O", "µM", ">", 100]
]}

Values compiled from ChEMBL document CHEMBL3797155.
